Biological target: hsTRPA1 (Homo sapiens, UniProt O75762)
Construct: HEK cells transfected with either full-length hsTRPA1 or channels containing deletions; porcine teschovirus-1 2A self-cleaving peptide (p2A) linking the channel to dTomato in a bicistronic vector (cleaved yes); host or cells: HEK 293T cells expressing human alpha-v beta-3 integrin and stably expressing GCaMP6f
Sequence (O75762 whole entry): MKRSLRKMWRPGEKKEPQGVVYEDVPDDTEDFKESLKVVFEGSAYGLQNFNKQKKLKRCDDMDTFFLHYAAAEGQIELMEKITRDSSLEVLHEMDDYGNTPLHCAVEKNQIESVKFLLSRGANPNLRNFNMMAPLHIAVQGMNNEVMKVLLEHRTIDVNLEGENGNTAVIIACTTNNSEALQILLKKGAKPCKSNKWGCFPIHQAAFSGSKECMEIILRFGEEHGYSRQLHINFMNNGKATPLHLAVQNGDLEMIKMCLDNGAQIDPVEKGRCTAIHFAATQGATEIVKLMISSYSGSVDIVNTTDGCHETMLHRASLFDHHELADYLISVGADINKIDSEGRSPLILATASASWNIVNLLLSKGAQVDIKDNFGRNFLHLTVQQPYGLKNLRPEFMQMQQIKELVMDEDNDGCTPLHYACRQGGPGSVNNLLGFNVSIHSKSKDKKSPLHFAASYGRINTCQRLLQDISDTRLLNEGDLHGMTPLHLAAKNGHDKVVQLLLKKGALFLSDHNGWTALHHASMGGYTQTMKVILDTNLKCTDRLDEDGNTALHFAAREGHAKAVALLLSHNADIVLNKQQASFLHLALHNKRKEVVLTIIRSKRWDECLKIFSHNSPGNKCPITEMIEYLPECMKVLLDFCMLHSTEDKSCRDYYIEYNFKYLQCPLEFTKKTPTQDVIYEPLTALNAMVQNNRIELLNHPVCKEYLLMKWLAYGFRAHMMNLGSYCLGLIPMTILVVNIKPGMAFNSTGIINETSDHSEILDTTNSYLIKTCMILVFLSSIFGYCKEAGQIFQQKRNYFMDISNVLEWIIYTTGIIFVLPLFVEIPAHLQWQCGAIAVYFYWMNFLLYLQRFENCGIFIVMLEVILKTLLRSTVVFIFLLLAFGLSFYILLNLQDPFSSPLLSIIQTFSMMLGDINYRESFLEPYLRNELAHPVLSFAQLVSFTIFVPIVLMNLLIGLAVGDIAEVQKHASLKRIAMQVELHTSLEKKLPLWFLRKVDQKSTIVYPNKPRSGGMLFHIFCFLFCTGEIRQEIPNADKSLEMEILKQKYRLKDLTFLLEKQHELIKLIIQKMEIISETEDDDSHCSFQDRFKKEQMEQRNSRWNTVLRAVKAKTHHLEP
Test: Effect of agents on ultrasound-evoked GCaMP6f response of hsTRPA1-expressing HEK cells
Type: cell-based
Conditions: agent added 45 minutes before; HC-030031 40 μM, MCD 5 mM, nocodazole 5 μM, latrunculin A 1 μM, paclitaxel 600 nM; versus vehicle
REPORTED_METRIC: Effect on ultrasound responses of hsTRPA1-expressing HEK cells (GCaMP6f peak amplitude)

SMILES_NOTATION	TEST_SYSTEM	RESULT
COC(=O)Nc1nc2ccc(C(=O)c3cccs3)cc2[nH]1	hsTRPA1 (Homo sapiens, UniProt O75762)	no significant effect
CC(=O)O[C@H]1C(=O)[C@@]2(C)[C@H]([C@H](OC(=O)c3ccccc3)[C@]3(O)C[C@H](OC(=O)[C@H](O)[C@@H](NC(=O)c4ccccc4)c4ccccc4)C(C)=C1C3(C)C)[C@]1(OC(C)=O)CO[C@@H]1C[C@@H]2O	hsTRPA1 (Homo sapiens, UniProt O75762)	no significant effect

Cited source: patent US20230263891A1
